Molecular target: IKZF1 (Homo sapiens, UniProt Q13422)
Construct: expressed in transfected cells; host or cells: Flp-In 293
Sequence (Q13422 83-213 isoform Q13422-7 limits assumed): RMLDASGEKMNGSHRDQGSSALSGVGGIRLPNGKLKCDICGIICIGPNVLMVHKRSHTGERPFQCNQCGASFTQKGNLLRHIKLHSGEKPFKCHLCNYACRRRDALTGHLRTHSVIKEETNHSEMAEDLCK
Sequence (Q96SW2 whole entry partner): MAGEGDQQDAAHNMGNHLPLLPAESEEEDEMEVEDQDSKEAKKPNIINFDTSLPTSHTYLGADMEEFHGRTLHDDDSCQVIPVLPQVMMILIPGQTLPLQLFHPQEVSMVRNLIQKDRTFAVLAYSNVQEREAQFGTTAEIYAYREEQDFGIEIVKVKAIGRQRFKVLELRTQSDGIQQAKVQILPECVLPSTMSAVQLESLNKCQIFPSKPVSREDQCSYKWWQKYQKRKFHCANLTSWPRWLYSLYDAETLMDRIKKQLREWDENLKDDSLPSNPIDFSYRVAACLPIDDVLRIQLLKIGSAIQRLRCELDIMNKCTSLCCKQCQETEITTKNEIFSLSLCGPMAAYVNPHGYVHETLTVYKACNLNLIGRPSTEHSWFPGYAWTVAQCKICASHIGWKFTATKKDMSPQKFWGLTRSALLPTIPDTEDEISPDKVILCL
Sequence (Q16531 2-1140 partner limits assumed): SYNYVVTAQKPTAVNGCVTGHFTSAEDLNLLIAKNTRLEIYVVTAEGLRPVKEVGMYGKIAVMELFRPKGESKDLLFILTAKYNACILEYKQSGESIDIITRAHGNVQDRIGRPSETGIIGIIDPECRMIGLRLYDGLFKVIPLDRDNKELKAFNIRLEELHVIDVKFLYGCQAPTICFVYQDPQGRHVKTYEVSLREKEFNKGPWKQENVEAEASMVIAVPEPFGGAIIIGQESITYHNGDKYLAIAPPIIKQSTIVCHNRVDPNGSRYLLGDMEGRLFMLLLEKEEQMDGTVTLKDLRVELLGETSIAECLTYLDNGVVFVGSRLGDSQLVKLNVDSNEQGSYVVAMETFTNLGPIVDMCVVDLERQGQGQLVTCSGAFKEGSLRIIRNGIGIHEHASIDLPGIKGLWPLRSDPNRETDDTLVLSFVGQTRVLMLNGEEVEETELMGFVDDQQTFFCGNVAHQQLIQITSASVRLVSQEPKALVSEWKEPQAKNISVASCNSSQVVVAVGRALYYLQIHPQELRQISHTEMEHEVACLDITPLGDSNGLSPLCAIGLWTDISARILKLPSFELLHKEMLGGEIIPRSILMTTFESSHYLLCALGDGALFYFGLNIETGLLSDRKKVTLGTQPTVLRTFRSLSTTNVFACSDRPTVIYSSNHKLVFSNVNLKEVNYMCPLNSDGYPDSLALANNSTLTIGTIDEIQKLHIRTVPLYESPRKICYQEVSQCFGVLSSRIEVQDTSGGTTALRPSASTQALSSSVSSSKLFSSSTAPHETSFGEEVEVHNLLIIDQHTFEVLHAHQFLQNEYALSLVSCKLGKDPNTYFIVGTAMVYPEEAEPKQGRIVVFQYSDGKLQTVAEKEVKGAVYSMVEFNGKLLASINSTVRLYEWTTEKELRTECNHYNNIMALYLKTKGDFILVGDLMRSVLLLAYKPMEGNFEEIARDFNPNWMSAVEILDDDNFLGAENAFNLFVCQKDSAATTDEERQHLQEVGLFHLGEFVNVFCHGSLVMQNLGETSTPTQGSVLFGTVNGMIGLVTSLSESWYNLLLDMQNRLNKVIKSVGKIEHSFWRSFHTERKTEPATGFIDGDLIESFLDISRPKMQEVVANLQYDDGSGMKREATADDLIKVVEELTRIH
Assay: Cellular degradation assay, eGFP-IKZF1Δ fusion with mCherry reporter in Flp-In 293 cells
Type: cell-based
Details: compound concentration 2.00E−07; 5 h incubation; n=1
Description: IKZF1Δ, IKZF2Δ, GSPT1 and SALL4 ZnF1-2 were subcloned into mammalian pcDNA5/FRT Vector (Ampicillin and Hygromycin B resistant) modified to contain MCS-eGFP-P2A-mCherry. […] Following 2-3 passage cycle, FACS (FACSAria™ II, BD) was used to enrich for cells expressing eGFP and mCherry. […] The resulting images were analyzed using CellProfiler™. […] The fraction of GFP-positive cells/mCherry-positive cells in each well was then calculated, and the green and red images were rescaled for visualization. […]
As shown below, each of these molecules has a reported IKZF1 GFP/RFP Relative Abundance value.
Write the value as a bare number.

Inquiry: Please give the measured IKZF1 GFP/RFP Relative Abundance for this molecule: O=C1CCC(N2C(=O)C=C(Nc3ccc4cn[nH]c4c3)C2=O)C(=O)N1 (centres unmarked)
Reply text: 0.832

Inquiry: Then what about the molecule Cc1ccc(NC(=O)NCc2cc(NC(=O)N(C)C)cc(NC3=CC(=O)N(C4CCC(=O)NC4=O)C3=O)c2)cc1Cl (centres unmarked) ?
Reply text: 1.002

Inquiry: Please answer likewise for CCC(NC(=O)Nc1ccc(C)c(Cl)c1)c1cccc(NC2=CC(=O)N(C3CCC(=O)NC3=O)C2=O)c1 (centres unmarked)
Reply text: 0.114

Inquiry: Likewise for O=C(Cc1ccc(Cl)c(Cl)c1)NCc1cccc(NC2=CC(=O)N(C3CCC(=O)NC3=O)C2=O)c1 (centres unmarked) ?
Reply text: 0.103

Inquiry: Likewise for Cc1ccc(NC(=O)Nc2cccc(NC3=CC(=O)N(C4CCC(=O)NC4=O)C3=O)c2)cc1C (centres unmarked) ?
Reply text: 0.251

Inquiry: Also Cc1ccc(NC(=O)OCCc2cccc(NC3=CC(=O)N(C4CCC(=O)NC4=O)C3=O)c2)cc1Cl (centres unmarked) , if possible.
Reply text: 0.086

Inquiry: Further, for O=C1CCC(N2C(=O)C=C(Nc3ccccc3)C2=O)C(=O)N1 (centres unmarked) ?
Reply text: 0.147

Inquiry: And for Cc1ccc(NC(=O)/C=C/c2cccc(NC3=CC(=O)N(C4CCC(=O)NC4=O)C3=O)c2)cc1Cl (centres unmarked) ?
Reply text: 0.305

---

Molecular target: GSPT1 (Homo sapiens, UniProt P15170+Q96SW2)
Sequence (P15170 whole entry, the tested form may be a part): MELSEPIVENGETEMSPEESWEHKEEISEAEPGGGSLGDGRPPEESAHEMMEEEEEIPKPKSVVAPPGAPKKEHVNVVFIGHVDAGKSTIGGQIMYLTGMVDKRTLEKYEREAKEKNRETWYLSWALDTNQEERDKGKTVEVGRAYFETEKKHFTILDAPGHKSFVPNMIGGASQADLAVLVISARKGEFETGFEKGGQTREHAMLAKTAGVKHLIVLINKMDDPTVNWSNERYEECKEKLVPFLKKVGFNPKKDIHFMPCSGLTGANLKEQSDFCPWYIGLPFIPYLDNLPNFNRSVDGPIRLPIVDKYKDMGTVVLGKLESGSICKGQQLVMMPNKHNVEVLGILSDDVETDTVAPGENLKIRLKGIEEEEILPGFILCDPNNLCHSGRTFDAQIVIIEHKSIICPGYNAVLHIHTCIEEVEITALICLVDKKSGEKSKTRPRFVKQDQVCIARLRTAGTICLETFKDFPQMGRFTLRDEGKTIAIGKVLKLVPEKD
Sequence (Q96SW2 whole entry, the tested form may be a part): as the sequence (Q96SW2 whole entry partner) above
Sequence (Q16531 whole entry partner, the tested form may be a part): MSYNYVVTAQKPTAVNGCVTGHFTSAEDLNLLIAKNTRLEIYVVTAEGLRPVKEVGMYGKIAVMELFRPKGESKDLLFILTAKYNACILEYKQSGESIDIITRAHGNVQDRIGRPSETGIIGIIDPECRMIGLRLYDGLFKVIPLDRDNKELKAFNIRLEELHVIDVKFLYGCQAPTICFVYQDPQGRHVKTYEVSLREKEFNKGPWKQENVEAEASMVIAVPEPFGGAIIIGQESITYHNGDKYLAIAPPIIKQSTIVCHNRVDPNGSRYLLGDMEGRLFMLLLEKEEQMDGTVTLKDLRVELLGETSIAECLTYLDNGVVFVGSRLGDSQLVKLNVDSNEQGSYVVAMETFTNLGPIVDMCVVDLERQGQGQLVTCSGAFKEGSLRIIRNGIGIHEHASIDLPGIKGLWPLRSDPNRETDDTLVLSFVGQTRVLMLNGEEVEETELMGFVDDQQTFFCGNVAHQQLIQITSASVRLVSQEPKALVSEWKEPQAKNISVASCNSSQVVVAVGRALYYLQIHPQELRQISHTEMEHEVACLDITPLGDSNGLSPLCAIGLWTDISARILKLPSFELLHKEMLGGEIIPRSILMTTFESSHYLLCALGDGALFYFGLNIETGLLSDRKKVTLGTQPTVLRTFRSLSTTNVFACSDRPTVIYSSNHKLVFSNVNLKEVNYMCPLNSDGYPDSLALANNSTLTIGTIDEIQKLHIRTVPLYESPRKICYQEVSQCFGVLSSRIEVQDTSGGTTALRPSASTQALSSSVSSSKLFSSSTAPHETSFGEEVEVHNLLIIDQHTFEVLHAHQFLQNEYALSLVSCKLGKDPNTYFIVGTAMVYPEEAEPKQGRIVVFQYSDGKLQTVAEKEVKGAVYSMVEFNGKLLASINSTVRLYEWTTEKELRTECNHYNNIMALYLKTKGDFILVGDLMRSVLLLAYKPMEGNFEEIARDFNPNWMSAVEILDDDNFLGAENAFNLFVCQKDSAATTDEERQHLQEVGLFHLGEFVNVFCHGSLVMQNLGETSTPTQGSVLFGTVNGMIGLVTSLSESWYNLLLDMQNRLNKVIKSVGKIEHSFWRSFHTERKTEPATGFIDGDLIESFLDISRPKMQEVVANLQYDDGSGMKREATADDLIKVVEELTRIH
Experiment: Cellular degradation assay, eGFP-GSPT1 fusion with mCherry reporter in Flp-In 293 cells
Assay type: cell-based
Parameters: expressed in transfected cells; host or cells: Flp-In 293
Conditions: compound concentration 2.00E−07; 5 h incubation; n=1
Property label: GSPT1 GFP/RFP Relative Abundance
Number only, no unit.

Compound: COC(=O)CCNC1=CC(=O)N(C2CCC(=O)NC2=O)C1=O (centres unmarked)
GSPT1 GFP/RFP Relative Abundance: 0.915
--
Compound: Cc1ccc(NC(=O)NCc2ccc3c(c2)CN(C2CCC(=O)NC2=O)C3=O)cc1Cl (centres unmarked) [CC-885, reference compound]
GSPT1 GFP/RFP Relative Abundance: 0.012
--
Compound: O=C(O)CCCNC1=CC(=O)N(C2CCC(=O)NC2=O)C1=O (centres unmarked)
GSPT1 GFP/RFP Relative Abundance: 0.909
--
Compound: Cc1ccc(NC(=O)Cc2cccc(NC3=CC(=O)N(C4CCC(=O)NC4=O)C3=O)c2)cc1Cl (centres unmarked)
GSPT1 GFP/RFP Relative Abundance: 0.643

Turning now to a further compound:
Inquiry: Request the reported GSPT1 GFP/RFP Relative Abundance associated with Cc1ccc(CC(=O)NCc2cccc(NC3=CC(=O)N(C4CCC(=O)NC4=O)C3=O)c2)cc1C (centres unmarked)
Reply text: 0.528
